TESTED SYSTEM: Pro-neuregulin-1, membrane-bound isoform (Homo sapiens) (UniProt Q02297)
Sequence (Q02297 whole entry, looked up, canonical isoform): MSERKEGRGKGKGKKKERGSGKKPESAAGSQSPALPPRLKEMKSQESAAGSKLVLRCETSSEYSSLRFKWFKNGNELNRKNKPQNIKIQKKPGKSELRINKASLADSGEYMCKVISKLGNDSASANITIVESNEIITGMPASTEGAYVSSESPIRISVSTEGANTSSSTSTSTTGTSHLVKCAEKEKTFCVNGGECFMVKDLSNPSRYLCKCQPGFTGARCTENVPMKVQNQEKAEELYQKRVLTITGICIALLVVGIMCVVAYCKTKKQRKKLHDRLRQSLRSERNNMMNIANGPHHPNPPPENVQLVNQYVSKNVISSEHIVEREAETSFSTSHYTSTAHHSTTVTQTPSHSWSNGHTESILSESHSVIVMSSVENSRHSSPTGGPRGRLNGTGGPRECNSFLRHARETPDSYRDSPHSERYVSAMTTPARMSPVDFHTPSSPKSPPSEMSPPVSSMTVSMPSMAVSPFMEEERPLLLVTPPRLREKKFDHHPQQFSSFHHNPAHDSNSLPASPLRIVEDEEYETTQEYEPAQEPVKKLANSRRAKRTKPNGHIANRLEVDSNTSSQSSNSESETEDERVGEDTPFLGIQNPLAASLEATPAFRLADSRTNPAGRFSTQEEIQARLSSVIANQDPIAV
PROTOCOL DESCRIPTION: NRG1 binders on small-molecule microarrays, primary screen, psychiatric disease protein project, biochemical, small-molecule microarray, fluorescence 635/667 (AID 1075);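 further: score combines 667 nm spot fluorescence with signal to noise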
MEASUREMENT CONTEXT: NRG1 binding, 635 nm fluorescence, higher = more signal
Please go through the items and note down their composite z-score.
Numbers only.

Solved entries:
COCOc1ccc(Br)cc1C(=O)C=Cc1ccc2c(c1)OCO2
-0.302
CC(C)=NO[C@@H](C)c1cn([C@H](CO)Cc2ccccc2)nn1
0.763
C[C@@H]1CC[C@H]2C(=O)OC(CN3C(=O)c4ccccc4C3=O)CN2[C@H]1c1ccc(Br)cc1 (stereo partly specified)
0.48
C#CCCCON=C1C[C@@H](O)[C@@H](O)[C@@H]2[C@@H]3C(=O)N(C[C@@H]4CCCO4)C(=O)[C@@H]3CC[C@H]12
0.43
COC(=O)[C@H](C)NC(=O)CCC1CC(OC(=O)NCc2ccc3c(c2)OCO3)CC2(CCCC(COC(=O)NCCCN3CCCC3=O)O2)O1 (stereo partly specified)
0.357

Lab note: each compound below needs its composite z-score filled in.
1. CC(CCN1CCc2nc(-c3ccccc3)c(-c3ccccc3)cc2C1)=NO[C@@H](C)c1cc(-c2c(C)cc(C)cc2C)no1
2. CCOC(=O)CCN1C(=O)[C@H]2[C@H]3[C@H](O)[C@H](O)CC(=NNC(=O)OCC)[C@H]3CC[C@H]2C1=O
3. CCC1=NOC(CCC2CC(OC(=O)NCc3cccc4c3OCO4)CC3(CCCC(COC(=O)NCCc4ccc(Cl)cc4)O3)O2)C1 (stereo unspecified)
4. CCN1C(=O)[C@H]2[C@H]3[C@H](O)[C@H](O)CC(=NNC(=O)OCc4ccccc4)[C@@H]3CC[C@H]2C1=O
5. CCCC[C@H]1CN2[C@@H](CC[C@@H](C)[C@@H]2c2ccc(Br)cc2)C(=O)O1
6. CO[C@H]1C[C@@H]2C[C@H](O)CC(CC(=O)O[C@@H](C=CCC(C)C)C[C@@H]3CC[C@H](C)[C@@H](C1)O3)O2

0.129
0.189
1.44
-0.003
1.19
-0.33

Lab note: each compound below needs its composite z-score filled in.
1. CC(C)=NOC[C@@H](O)[C@H]1O[C@@H]2OC(C)(C)O[C@@H]2[C@H]1O
2. O=C1C2=CC[C@H]3C(=O)N(Cc4ccccc4)C(=O)[C@H]3[C@H]2[C@H](O)[C@@H]2O[C@H]12
3. COc1ccc(COC(=O)NN=C2C[C@@H](O)[C@@H](O)[C@@H]3[C@@H]4C(=O)N(C(C)(C)C)C(=O)[C@@H]4CC[C@@H]23)cc1
4. O=C1C2=CC[C@H]3C(=O)N(c4ccc(F)cc4F)C(=O)[C@H]3[C@H]2[C@H](O)[C@@H]2O[C@H]12
5. CCOC(=O)[C@H](CC(C)C)NC(=O)CCC1CC(OC(=O)NCCc2ccc(F)cc2)CC2(CCCC(COC(=O)NCCCN3CCCC3=O)O2)O1 (stereo partly specified)

0.233
-0.0087
0.173
-0.0808
-0.0939

----------
TESTED SYSTEM: Luciferin 4-monooxygenase (Photinus pyralis)
PROTOCOL DESCRIPTION: firefly luciferase enzyme inhibitors, primary screen, biochemical, luminescence, purified enzyme, 2006 set (AID 1141);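 further: cell-free assay with purified firefly luciferase at 100 ng per well in PBS; test concentration not given here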
MEASUREMENT CONTEXT: SteadyGlo luminescence, 30 min, higher = more signal, called active from +8 up or from −8 down
OBSERVATION TYPE: z-score
Numbers only.

Solved entries:
Cc1ccc(C(C)C)n1C(=O)OC(C)(C)C
-1.7
CC(C)[C@@H](OCc1ccccc1)[C@H](C)CON=C1[C@H]2CCn3c(=O)n(-c4ccccc4)c(=O)n3[C@H]2[C@H](O)[C@@H]2O[C@H]12
0.0981
CCOC(=O)[C@H](CC(C)C)NC(=O)CCC1CC(OC(=O)NCc2ccc3c(c2)OCO3)CC2(CCCC(COC(=O)NCCOC)O2)O1 (some centres not stated)
0.713
O=C1[C@H]2[C@H]3[C@H](O)[C@H](O)CC(=NO[C@@H]4O[C@H](CO)[C@@H](O)[C@H](O)[C@H]4O)[C@@H]3CC[C@H]2C(=O)N1C1CCCCC1
-0.33
COC(=O)CC=C[C@@H](C)[C@@H](C=NOC(C)CN1CCCCc2nc(C)c(C)cc21)NS(=O)(=O)c1ccc(C)cc1 (some centres not stated)
0.183

Lab note: each compound below needs its z-score filled in.
1. COC(=O)[C@@H]1CC[C@H](C)[C@@H](c2ccc(Br)cc2)N1C[C@H](O)CN=[N+]=[N-]
2. CCCNC(=O)OC[C@H]1O[C@H](CCON=C[C@@H](NS(=O)(=O)c2ccc(C)cc2)[C@H](C)C=CCC(=O)OC)C=C[C@@H]1Oc1ccc(OC)cc1

1: -0.169; 2: -0.21
